# study-target: sigma receptor, [3H]-(+)-3-PPP site (Cavia porcellus)
# assay-details: Potency at the sigma binding site was determined in radioligand
pIC50: −log10 of the molar value.
readout-name: pIC50

Recorded results for 5 compounds are shown here.
COc1cccc(-c2cc(=O)c3cc(OCCCCCCN4CCC(O)CC4)ccc3o2)c1 :: 6.95
CN(C)CCCCCCCCCOc1ccc2oc(-c3ccccc3)cc(=O)c2c1 :: 6.69
CCOC(=O)C1CCN(CCCCCCOc2ccc3oc(-c4ccccc4)cc(=O)c3c2)CC1 :: 6.99
O=c1cc(-c2ccccc2)oc2ccc(OCCCCCCN3CCNCC3c3ncccn3)cc12 (stereo not given) :: 4.85
CN(C)CCCCCCCCOc1ccc2oc(-c3ccccc3)cc(=O)c2c1 :: 6.84

(a) O=c1cc(-c2ccc(F)cc2)oc2ccc(OCCCCCCN3CCC(O)CC3)cc12
(b) CN(C)CCCCOc1ccc2oc(-c3ccccc3)cc(=O)c2c1
(c) CN(CCCCCCOc1ccc2oc(-c3ccccc3)cc(=O)c2c1)Cc1ccccc1
Task: Arrange these 3 compounds in increasing order of pIC50. # answer = labels listed in requested order
Result: b, a, c

(P) O=c1cc(C2CCCCC2)oc2ccc(OCCCCCCN3CCCCC3)cc12
(Q) O=c1cc(-c2ccccc2)oc2cc(OCCCCCCN3CCC(O)CC3)ccc12
Task: Pick one: P or Q . Which has the bigger pIC50 number? Mark your answer with the label of the selected entry.
Result: P

====

# study-target: sigma receptor, [3H]DTG site (Cavia porcellus)
# assay-details: Potency at the sigma binding site was determined in radioligand
readout-name: IC50 (nM)

The examples below pair each entry with its known result.
O=c1cc(-c2ccncc2)oc2ccc(OCCCCCCN3CCC(O)CC3)cc12 :: 159
O=c1cc(-c2cccnc2)oc2ccc(OCCCCCCN3CCC(O)CC3)cc12 :: 194
COc1ccc(-c2cc(=O)c3cc(OCCCCCCN4CCC(O)CC4)ccc3o2)cc1 :: 254
CCOC(=O)C1CCN(CCCCCCOc2ccc3oc(-c4ccccc4)cc(=O)c3c2)CC1 :: 164
O=c1cc(-c2ccccc2)oc2cc(OCCCCCCN3CCC(O)CC3)ccc12 :: 45
O=c1cc(C2CCCC2)oc2ccc(OCCCCCCN3CCC(O)CC3)cc12 :: 51
O=c1cc(C2CCCCC2)oc2ccc(OCCCCCCN3CCC(O)CC3)cc12 :: 88
COc1ccc(-c2cc(=O)c3cc(OCCCCCN4CCC(O)CC4)ccc3o2)cc1 :: 493

(a) O=c1cc(-c2cccnc2)oc2ccc(OCCCCCCN3CCCCC3)cc12
(b) CN(C)CCCCOc1ccc2oc(-c3ccccc3)cc(=O)c2c1
Task: I'd appreciate it if you could identify which of a and b has the greater IC50. Select an item and report its label.
Result: b

(1) O=c1cc(-c2ccccc2)oc2ccc(OCCCCCCN3CCCCC3)cc12
(2) CN(C)CCOc1ccc2oc(-c3ccccc3)cc(=O)c2c1
(3) O=c1cc(-c2ccccc2)oc2cccc(OCCCCN3CCC(O)CC3)c12
Task: Given 3 compounds, produce a descending ranking by IC50. Answer format: the labels, ordered as requested.
Result: 2, 1, 3
(2: 590 nM, 1: 101 nM, 3: 58 nM)

====

# study-target: sigma receptor, [3H]-(+)-3-PPP site (Cavia porcellus)
# assay-details: Potency at the sigma binding site was determined in radioligand
readout-name: IC50 (nM)

These recorded examples may help you get a feel for the data.
O=c1cc(-c2ccncc2)oc2ccc(OCCCCCCN3CCC(O)CC3)cc12 :: 308
CCN(CC)CCCCCCOc1ccc2oc(-c3ccccc3)cc(=O)c2c1 :: 100
O=c1cc(-c2ccccc2Cl)oc2ccc(OCCCCCCN3CCC(O)CC3)cc12 :: 29
O=c1cc(-c2ccccc2)oc2cccc(OCCCN3CCC(O)CC3)c12 :: 91

(a) O=c1cc(-c2ccccc2)oc2ccc(OCCCCCCN3CCC(O)CC3)cc12
(b) O=c1cc(-c2cccs2)oc2ccc(OCCCCCCN3CCC(O)CC3)cc12
(c) O=c1cc(-c2ccccc2)oc2cc(OCCCCCCCN3CCC(O)CC3)ccc12
(d) O=c1cc(-c2ccccc2)oc2cccc(OCCCCCCCN3CCC(O)CC3)c12
(e) CN(C)CCCCCCOc1ccc2oc(-c3ccccc3)cc(=O)c2c1
Task: Sort the 5 molecules by IC50; largest first, smallest last. # respond with the labels, arranged in the requested order
Result: e, b, a, d, c

====

# study-target: sigma receptor, [3H]DTG site (Cavia porcellus)
# assay-details: Potency at the sigma binding site was determined in radioligand
pIC50: −log10 of the molar value.
readout-name: pIC50

Consider the worked cases shown below.
CN(CCCCCCOc1ccc2oc(-c3ccccc3)cc(=O)c2c1)Cc1ccccc1 :: 7.28
CN(C)CCCCCCOc1ccc2oc(-c3ccccc3)cc(=O)c2c1 :: 6.36
O=c1cc(-c2ccccc2)oc2ccc(OCCCCCCN3CCC(O)CC3)cc12 :: 7.00

(P) O=c1cc(-c2ccc(Cl)cc2)oc2ccc(OCCCCCCN3CCC(O)CC3)cc12
(Q) O=c1cc(C2CCCCC2)oc2ccc(OCCCCCCN3CCCCC3)cc12
Task: Identify the item whose pIC50 is the smaller number: P or Q To answer, give the label that identifies your chosen option.
Result: P

(A) CC(C)Cc1cc(=O)c2cc(OCCCCCN3CCC(O)CC3)ccc2o1
(B) CN(C)CCCCCCCCCOc1ccc2oc(-c3ccccc3)cc(=O)c2c1
(C) O=c1cc(-c2ccccc2Cl)oc2ccc(OCCCCCCN3CCC(O)CC3)cc12
(D) O=c1cc(-c2ccccc2)oc2cc(OCCCCCCCN3CCC(O)CC3)ccc12
(E) O=c1cc(-c2ccccc2)oc2ccc(OCCCCCCN3CCCC(O)C3)cc12 (configuration not stated)
Task: Sort the compounds on pIC50; start with the lowest figure. Reply with the labels, ordered as the question asks.
Result: B, A, E, C, D
(B: 6.48, A: 6.86, E: 7.07, C: 7.33, D: 7.80)

(P) O=c1cc(-c2ccc(F)cc2)oc2ccc(OCCCCCCN3CCC(O)CC3)cc12
(Q) O=c1cc(C2CCCCC2)oc2ccc(OCCCCCCN3CCOCC3)cc12
Task: For the pair P and Q , which entry has the numerically smaller recorded pIC50? State the label of the item chosen.
Result: Q
(Q: 6.62, P: 7.02)

(1) O=c1cc(-c2ccccc2)oc2ccc(OCCCN3CCC(O)CC3)cc12
(2) O=c1cc(-c2ccccc2)oc2cccc(OCCCCCCCN3CCC(O)CC3)c12
(3) CN(C)CCCCCCCCOc1ccc2oc(-c3ccccc3)cc(=O)c2c1
(4) COc1cccc(-c2cc(=O)c3cc(OCCCCCCN4CCC(O)CC4)ccc3o2)c1
Task: Please list these in order of increasing pIC50. Thank you! // list labels; follow requested order
Result: 3, 1, 4, 2

(A) O=c1cc(-c2cccs2)oc2ccc(OCCCCCCN3CCC(O)CC3)cc12
(B) CN(C)CCCCCCCCCCOc1ccc2oc(-c3ccccc3)cc(=O)c2c1
(C) O=c1cc(C2CCCC2)oc2ccc(OCCCCCCN3CCCCC3)cc12
Task: Arrange the 3 compounds from largest to smallest pIC50. Return the labels ranked in the requested order, please.
Result: C, A, B
(C: 7.59, A: 6.92, B: 6.53)

(A) CN(C)CCCCCCCOc1ccc2oc(-c3ccccc3)cc(=O)c2c1
(B) CCN(CC)CCCCCCOc1ccc2oc(-c3ccccc3)cc(=O)c2c1
Task: Returns: the argument ( A or B ) having the larger pIC50. Indicate your choice by writing its label.
Result: B
(B: 7.04, A: 6.78)

====

# study-target: sigma receptor, [3H]-(+)-3-PPP site (Cavia porcellus)
# assay-details: Potency at the sigma binding site was determined in radioligand
pIC50: −log10 of the molar value.
readout-name: pIC50

Reference set (8 entries):
O=c1cc(-c2cccnc2)oc2ccc(OCCCCCCN3CCC(O)CC3)cc12 :: 6.68
O=c1cc(C2CCCC2)oc2ccc(OCCCCCCN3CCC(O)CC3)cc12 :: 7.26
COc1ccc(-c2cc(=O)c3cc(OCCCCCCN4CCC(O)CC4)ccc3o2)cc1 :: 6.48
O=c1cc(-c2ccccc2)oc2ccc(OCCCCCCN3CCCCC3)cc12 :: 7.27
O=c1cc(-c2ccccc2)oc2ccc(OCCCCCCN3CCCC(O)C3)cc12 (stereo unspecified) :: 7.11
O=c1cc(-c2ccc(Cl)cc2)oc2ccc(OCCCCCCN3CCC(O)CC3)cc12 :: 6.79
O=c1cc(C2CCCCC2)oc2ccc(OCCCCCCN3CCOCC3)cc12 :: 7.02
O=c1cc(-c2ccccc2)oc2ccc(OCCCN3CCC(O)CC3)cc12 :: 6.91

(1) CN(C)CCCCCCCOc1ccc2oc(-c3ccccc3)cc(=O)c2c1
(2) CN(C)CCOc1ccc2oc(-c3ccccc3)cc(=O)c2c1
(3) COc1ccc(-c2cc(=O)c3cc(OCCCCCN4CCC(O)CC4)ccc3o2)cc1
Task: Please list the entries, largest pIC50 first. Submit the labels in the order that the ranking request calls for.
Result: 2, 1, 3
(2: 7.40, 1: 6.73, 3: 6.22)

(1) O=c1cc(-c2cccnc2)oc2ccc(OCCCCCCN3CCCCC3)cc12
(2) CN(C)CCCCCCCCCCOc1ccc2oc(-c3ccccc3)cc(=O)c2c1
Task: Lab note: check whether 1 or 2 shows the higher recorded pIC50. Return value: the label identifying the chosen record.
Result: 1

(I) O=c1cc(C2CCCCC2)oc2ccc(OCCCCCCN3CCC(O)CC3)cc12
(II) CC(C)Cc1cc(=O)c2cc(OCCCCCN3CCC(O)CC3)ccc2o1
Task: Given I and II , report the one with the higher recorded pIC50. Provide the label of your selected option as the answer.
Result: I
(I: 7.34, II: 6.58)
